These data points were gathered from patent US11098061B2.

Tested system: p38a activated, mitogen-activated protein kinase-activated protein kinase 2 (MAPKAP-K2 or MK-2) enzyme (Homo sapiens (Human))
Sequence (P49137 whole entry): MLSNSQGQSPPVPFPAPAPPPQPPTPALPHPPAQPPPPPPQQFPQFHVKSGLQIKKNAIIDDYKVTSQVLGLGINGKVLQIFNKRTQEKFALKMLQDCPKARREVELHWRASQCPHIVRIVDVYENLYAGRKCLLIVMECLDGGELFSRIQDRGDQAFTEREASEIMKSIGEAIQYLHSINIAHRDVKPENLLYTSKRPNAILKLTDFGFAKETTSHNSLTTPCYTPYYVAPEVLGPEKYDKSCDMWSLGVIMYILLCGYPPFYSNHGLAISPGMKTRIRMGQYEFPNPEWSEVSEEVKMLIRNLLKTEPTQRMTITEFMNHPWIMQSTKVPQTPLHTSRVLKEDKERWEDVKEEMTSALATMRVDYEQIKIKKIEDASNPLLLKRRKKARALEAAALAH
Experimental details: MK2 Omnia continuous-read kinase assay for compound potency
Protocol conditions: [MK-2]=0.4 nM, [ATP]=1.0 mM, [ST3-Sox]=10 μM
Procedure: The protocol below describes a continuous-read kinase assay optimized to measure potency of compounds against p38a activated, mitogen-activated protein kinase-activated protein kinase 2 (MAPKAP-K2 or MK-2) enzyme. […] Kinase reactions were started with the addition of 40 μL of MK-2 enzyme and monitored every 71 seconds for 30-240 minutes at λex360/λem485 in a Synergy^2, Synergy^4 or Synergy H^4 plate reader from BioTek (Winooski, Vt.). […]

| Molecule | IC50 |
| --- | --- |
| C=CC(=O)Nc1cc(-c2cc3c(ccc4c5c([nH]c43)CCC5=O)cn2)ccc1Cl [II-e-20] | < 100 nM |
| C=CC(=O)Nc1ccccc1Nc1nccc(-c2cc3c([nH]2)C2(CCCNC2)CNC3=O)n1 (racemic) [Compound I-5] | > 1000 nM |
| C=CC(=O)Nc1cc(-c2ncc3c(n2)-c2[nH]c4c(c2CC3)C(=O)NCC4)cnc1OCCOC [II-13] | < 100 nM |
| C=CC(=O)N1CCOc2ccc(-c3cc4c(cn3)CCc3c-4[nH]c4c3C(=O)NC3(CC3)C4)cc21 [II-12] | < 100 nM |
| C=CC(=O)Nc1cc(C(=O)Nc2cc(-c3cc4c([nH]3)C3(CCCNC3)CNC4=O)ccn2)ccc1OC(F)(F)F (racemic) [Compound I-23] | < 100 nM |
| C=CC(=O)N1CC(C)Oc2ccc(-c3cc4c(ccc5c6c([nH]c54)CCC6=O)cn3)cc21 (stereo not drawn) [II-e-17] | < 100 nM |
| C=CC(=O)N1CCOc2ccc(NC(=O)c3ccc4cc5n(c4c3)CCNC5=O)cc21 [Compound V-6] | < 100 nM |
| C=CC(=O)Nc1cc(OCC)ccc1Nc1c(C)c(NC2CCCNC2)nc2ccnn12 (stereo not drawn) [IV-2] | 101 to 500 nM |
| C=CC(=O)N1CC(C)Oc2ccc(NC(=O)c3ccc4cc5n(c4c3)C3(CCC3)CNC5=O)cc21 (racemic) [Compound V-50] | < 100 nM |
| C=CC(=O)Nc1cc(-c2cc3c(cn2)CCc2c-3[nH]c3c2C(=O)NCC3)ccc1OCCCNC(=O)CCCC(=O)NCCCOCCOCCOCCCNC(=O)CCCC[C@H]1SC[C@H]2NC(=O)N[C@H]21 [Probe 2] | < 100 nM |
| C=CC(=O)NC1CS(=O)(=O)CC1NC(=O)c1ccc2sc3c(c2c1)NC[C@@H](C)NC3=O (stereo partly drawn) [III-49] | < 100 nM |
| C=CC(=O)Nc1cc(-c2nccc(-c3cc4c([nH]3)CCNC4=O)n2)ccc1OCCOC [II-22] | < 100 nM |
| C=CC(=O)Nc1cc(-c2cc3c(ccc4c5c([nH]c43)CCC5=O)cn2)ccc1N1CCN(C)CC1 [II-e-4] | < 100 nM |
| C=CC(=O)N1CCOc2ncc(-c3cc4c(cn3)CCc3c-4[nH]c4c3C(=O)NC3(CC3)C4)cc21 [II-9] | < 100 nM |
| C=CC(=O)N1CCC[C@H](NC(=O)c2ccc3cc4n(c3c2)C2(CCC2)CNC4=O)C1 [Compound V-47] | > 1000 nM |
